- systemUnderTest: HpNikR K31A (Helicobacter pylori G27, UniProt A1YSQ9 1-148, K31A)
- experimentalDetails: fluorescence anisotropy; Ni(II)-bound; FA: 5 nM DNA, 20 mM Tris pH 7.6, 100 mM NaCl, 3 mM MgSO4, temperature not stated (Ni loading 1.2 eq NiSO4 per monomer at RT). EMSA: 20 mM Tris pH 7.5, 100 mM KCl, 3 mM MgCl2, 0.1% IGEPAL, 5% glycerol, 0.1 mg/ml herring sperm DNA, RT; gel with 800 uM NiSO4 at 4 C
- setupConditions: protein: recombinant; tags: none stated; chain copies: 4; label: fluorescein on internal thymine (T14 of strand 1); blunt
endpointLabel: Kd

binder	testResult
ureA-perf promoter 32 bp (dsDNA) DNA 1: ATATATTATTAATTCATTTTAAATAATAATTA DNA 2: TAATTATTATTTAAAATGAATTAATAATATAT	4.1 nM

Alright, here's another binder for you.
**Q:** Please report the recorded Kd for ureA promoter 32 bp (FA) (dsDNA) DNA 1: ATATAACACTAATTCATTTTAAATAATAATTA DNA 2: TAATTATTATTTAAAATGAATTAGTGTTATAT .
**A:** 6.8 nM
